Readings of Kd for the listed binders
molecular target: T1, recombinant BACE1 (BACE1 extracellular domain, R&D Systems Cat#931-AS) (UniProt P56817 22-457); assay: SPR Biacore 8K, antibody captured, BACE1 analyte
T1 construct: extracellular domain; also called BACE1 extracellular domain protein
T1 sequence (P56817 22-457): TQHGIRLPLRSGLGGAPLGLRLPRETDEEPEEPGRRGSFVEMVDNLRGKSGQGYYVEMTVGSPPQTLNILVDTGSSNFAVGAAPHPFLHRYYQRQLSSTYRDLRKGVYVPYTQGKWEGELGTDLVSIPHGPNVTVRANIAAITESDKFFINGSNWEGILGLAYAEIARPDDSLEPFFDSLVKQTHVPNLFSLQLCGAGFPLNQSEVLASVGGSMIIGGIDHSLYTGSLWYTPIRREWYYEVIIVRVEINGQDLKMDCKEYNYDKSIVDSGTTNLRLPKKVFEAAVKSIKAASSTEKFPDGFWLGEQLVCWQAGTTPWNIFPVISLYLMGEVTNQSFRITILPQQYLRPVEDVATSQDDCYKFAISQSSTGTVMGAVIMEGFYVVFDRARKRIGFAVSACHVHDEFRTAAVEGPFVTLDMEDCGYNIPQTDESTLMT

INSERT INTO results (binder, readout_value) VALUES
  ('hu2H8v29.20 (antibody, V domains shown, captured via human Fc; also called hu2H8_LC5 + hu2H8_HC6.9) VH: QVQLVQSGAEVKKPGASVKVSCKASGYTFTNFWIHWVRQAPGQGLEWMGMIDPSDAYTKYNQKFKARATLTVDTSTSTVYMELSSLRSEDTAVYYCARSGVAFPYWGQGTLVTVSS VL: DIQMTQSPSSLSASVGDRVTITCKASQDVGRNVAWYQQKPGKSPKSLIYSASHRYSGVPSRFSGSGSGTDFTLTISSLQPEDFATYFCQQYNSYPYTFGQGTKVEIK', '0.00869 µM');

Continue with the binder presented below.
INPUT: Indicate its recorded Kd; the binder in question is hu2H8v29.15 (antibody, V domains shown, captured via human Fc; also called hu2H8_LC5 + hu2H8_HC6.4) VH: QVQLVQSGAEVKKPGASVKVSCKASGYTFTNFYIHWVRQAPGQGLEWMGMIDPSDSYTKYNQKFKARATLTVDTSTSTVYMELSSLRSEDTAVYYCARSGVAFPYWGQGTLVTVSS VL: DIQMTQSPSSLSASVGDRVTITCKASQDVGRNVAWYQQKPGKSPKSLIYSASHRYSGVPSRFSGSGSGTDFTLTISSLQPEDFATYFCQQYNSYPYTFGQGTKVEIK
OUTPUT: 0.0192 µM
